These entries and their values trace back to patent US20070003671A1.

Test: Calcium salts, physical/chemical attributes in orange juice, 450 mg/100 mL calcium load
Format: physicochemical
Conditions: unfortified juice 18.3
Recorded measurements of Brix/Acid Ratio, one per entry
API note: the answer field is a bare number with no unit suffix.

O=P([O-])([O-])[O-].O=P([O-])([O-])[O-].[Ca+2].[Ca+2].[Ca+2] [tricalcium phosphate (fine), tricalcium phosphate] | 25.4

Query: Consider the molecule shown here: O.O=P([O-])(O)O.O=P([O-])(O)O.[Ca+2] [monocalcium phosphate monohydrate] What is its recorded Brix/Acid Ratio?
Result: 10.4

Query: Record: O=P([O-])([O-])O.[Ca+2] [dicalcium phosphate anhydrous]
Result: 17.8
